# inhibition per record follows
# Measured Target: 3-phosphoinositide-dependent protein kinase 1 (Homo sapiens);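 further: values are mean inhibition of PDK1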
# Condition Details: at 0.1 µM
Assay Readout: inhibition

Molecule | Measured Target | Assay Readout | Result
COc1cc(Nc2ncc(-c3ccccc3)o2)cc(OC)c1OC | 3-phosphoinositide-dependent protein kinase 1 (Homo sapiens) | inhibition | -0.87%
NC(=O)c1cc(-c2ccncc2)cc(-c2ccccc2)c1N | 3-phosphoinositide-dependent protein kinase 1 (Homo sapiens) | inhibition | 2.16%
FC(F)(F)c1cccc(Nc2nccc(-c3cnn4nc(-c5ccccc5)ccc34)n2)c1 | 3-phosphoinositide-dependent protein kinase 1 (Homo sapiens) | inhibition | -0.51%
c1ccc(Oc2ccc(Nc3ncc(-c4ccccc4)o3)cc2)cc1 | 3-phosphoinositide-dependent protein kinase 1 (Homo sapiens) | inhibition | 3.8%
Fc1ccc(-c2ncn(C3CCNCC3)c2-c2ccnc(Oc3ccc(F)c(F)c3)n2)cc1 | 3-phosphoinositide-dependent protein kinase 1 (Homo sapiens) | inhibition | 0.57%
COc1ccc2cc(-c3c(-c4ccncc4)nc(-c4ccc([S+](C)[O-])cc4C)n3C)ccc2c1 (stereo not given) | 3-phosphoinositide-dependent protein kinase 1 (Homo sapiens) | inhibition | 0.48%
Cc1ccc(C(=O)NC(C)C)cc1-c1ccc(C(=O)NCC2CC2)cc1 | 3-phosphoinositide-dependent protein kinase 1 (Homo sapiens) | inhibition | -3.15%
NS(=O)(=O)c1ccc(N/N=C2\C(=O)Nc3ccc(C(=O)NCCCn4ccnc4)cc32)cc1 | 3-phosphoinositide-dependent protein kinase 1 (Homo sapiens) | inhibition | 3.57%
CCc1nccc2c1nc(-c1nonc1N)n2CC | 3-phosphoinositide-dependent protein kinase 1 (Homo sapiens) | inhibition | 0.73%
NS(=O)(=O)c1ccc(N/N=C2\C(=O)Nc3ccc(-c4cnco4)cc32)cc1 | 3-phosphoinositide-dependent protein kinase 1 (Homo sapiens) | inhibition | 2.95%
COc1cccc(/C=N/Nc2ncnc3c2cnn3-c2cccc(OC)c2)c1 | 3-phosphoinositide-dependent protein kinase 1 (Homo sapiens) | inhibition | 1.13%
C[C@@H](Oc1cc(-n2cnc3ccc(OCC4CCN(C)CC4)cc32)sc1C(N)=O)c1ccccc1Cl | 3-phosphoinositide-dependent protein kinase 1 (Homo sapiens) | inhibition | 2.77%
CCc1ccc(Oc2nccc(-c3c(-c4ccc(F)cc4)ncn3C3CCNCC3)n2)cc1 | 3-phosphoinositide-dependent protein kinase 1 (Homo sapiens) | inhibition | 1.58%
COc1cc(Nc2ncc3c(C)nc(-c4cccc(Oc5ccccc5)c4)n3n2)cc(OC)c1OC | 3-phosphoinositide-dependent protein kinase 1 (Homo sapiens) | inhibition | 3.74%
CCN(CC)Cc1ccc(Nc2nccc(-c3cnn4ncccc34)n2)cc1 | 3-phosphoinositide-dependent protein kinase 1 (Homo sapiens) | inhibition | 0.96%
Cc1ccc(C(=O)NC2CCC2)cc1-c1ccc(C(=O)NCC2CC2)cc1 | 3-phosphoinositide-dependent protein kinase 1 (Homo sapiens) | inhibition | 1.97%
NS(=O)(=O)c1ccc(Nc2cc(-c3ccc(O)c(F)c3)n[nH]2)cc1 | 3-phosphoinositide-dependent protein kinase 1 (Homo sapiens) | inhibition | -2.08%
CS(=O)(=O)CCNCc1ccc(-c2ccc3ncnc(Nc4ccc(OCc5ccccc5)c(Br)c4)c3c2)o1 | 3-phosphoinositide-dependent protein kinase 1 (Homo sapiens) | inhibition | 2.06%
NC(=O)c1cc(-c2ccc(F)cc2)cc(-c2ccncc2)c1N | 3-phosphoinositide-dependent protein kinase 1 (Homo sapiens) | inhibition | 1.54%
N#Cc1ccc(Oc2nccc(-c3c(-c4ccc(F)cc4)ncn3C3CCNCC3)n2)cc1 | 3-phosphoinositide-dependent protein kinase 1 (Homo sapiens) | inhibition | 8.47%
COc1cccc(-n2cnc3c(N/N=C/c4ccncc4)ncnc32)c1 | 3-phosphoinositide-dependent protein kinase 1 (Homo sapiens) | inhibition | 0.77%
COc1ccc2ncn(-c3cc(O[C@H](C)c4ccccc4Cl)c(C(N)=O)s3)c2c1 | 3-phosphoinositide-dependent protein kinase 1 (Homo sapiens) | inhibition | 0.22%
COc1cc(C)c(N(C)C(=O)CN(C)C)cc1Nc1nc(Nc2cccc(F)c2C(N)=O)c2cc[nH]c2n1 | 3-phosphoinositide-dependent protein kinase 1 (Homo sapiens) | inhibition | 3.26%
CN(C)CCCNc1nccc(-c2c(-c3ccc(F)cc3)nn3cc(C(F)(F)F)ccc23)n1 | 3-phosphoinositide-dependent protein kinase 1 (Homo sapiens) | inhibition | 2.53%
COc1ccc(C2=C(N3CCc4ccccc43)C(=O)NC2=O)cc1 | 3-phosphoinositide-dependent protein kinase 1 (Homo sapiens) | inhibition | 4.19%
Cc1ccc(NC(=O)c2ccoc2)cc1-c1ccc(C(=O)NCC2CC2)cc1 | 3-phosphoinositide-dependent protein kinase 1 (Homo sapiens) | inhibition | 0.18%
C/C(Nc1ccc(S(N)(=O)=O)cc1)=C1/C(=O)Nc2ccccc21 | 3-phosphoinositide-dependent protein kinase 1 (Homo sapiens) | inhibition | 6.52%
Fc1ccc(-c2nc3n(c2-c2ccncc2)CCS3)cc1 | 3-phosphoinositide-dependent protein kinase 1 (Homo sapiens) | inhibition | 1.88%
O=C1NC(=O)C(c2cccc(Cl)c2)=C1Nc1ccc(Cl)c(C(=O)O)c1 | 3-phosphoinositide-dependent protein kinase 1 (Homo sapiens) | inhibition | 1.28%
Fc1ccc(-c2ncn(C3CCNCC3)c2-c2ccnc(Oc3ccc4c(c3)OCO4)n2)cc1 | 3-phosphoinositide-dependent protein kinase 1 (Homo sapiens) | inhibition | -1.49%
